Just for reference, patent US20210032365A1 is where these values come from.

// reported Kd for each item listed
- targetEntity: T1, human C1s (human, UniProt P09871 16-688)
- T1 construct: also called hC1s; serum-derived human C1s (CompTech)
- T1 sequence: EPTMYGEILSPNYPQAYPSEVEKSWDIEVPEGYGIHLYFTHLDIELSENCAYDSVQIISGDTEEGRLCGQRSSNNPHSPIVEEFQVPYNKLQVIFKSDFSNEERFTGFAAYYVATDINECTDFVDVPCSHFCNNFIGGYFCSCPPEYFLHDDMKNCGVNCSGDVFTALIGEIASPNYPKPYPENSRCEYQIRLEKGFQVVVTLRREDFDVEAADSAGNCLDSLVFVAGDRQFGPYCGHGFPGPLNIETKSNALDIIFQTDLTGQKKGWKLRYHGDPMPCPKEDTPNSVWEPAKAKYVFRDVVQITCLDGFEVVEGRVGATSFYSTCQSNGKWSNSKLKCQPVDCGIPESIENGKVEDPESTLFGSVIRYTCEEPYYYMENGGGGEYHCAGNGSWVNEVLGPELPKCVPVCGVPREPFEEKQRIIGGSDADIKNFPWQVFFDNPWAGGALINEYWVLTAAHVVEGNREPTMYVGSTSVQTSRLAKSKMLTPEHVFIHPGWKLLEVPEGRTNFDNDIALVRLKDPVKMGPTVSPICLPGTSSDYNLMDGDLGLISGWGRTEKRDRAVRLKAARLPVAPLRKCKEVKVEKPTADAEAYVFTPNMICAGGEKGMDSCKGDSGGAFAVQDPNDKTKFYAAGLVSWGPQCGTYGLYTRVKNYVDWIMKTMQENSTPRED
- assayName: SPR, Ab captured; pH 5.8, 1.2 mM Ca
I only need the number, in nM, no unit after it.

Field: example entries. Status: answers known.
Q: # get_value(readout='Kd', item= C1_IPN92H0033-SG4GK/IPN93L0029-SK1 (antibody, human IgG4 S228P, kappa, name in Kabat numbering, V domains shown, also called IPN92H0033/IPN93L0029) VH: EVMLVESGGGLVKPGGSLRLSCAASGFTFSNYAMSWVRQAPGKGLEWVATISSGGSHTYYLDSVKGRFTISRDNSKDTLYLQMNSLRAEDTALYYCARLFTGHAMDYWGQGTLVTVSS VL: QIVLTQSPATLSLSPGERATLSCTASSSVSSSYLHWYQQKPGKAPKLWIYSTSNLASGVPSRFSGSGSGTDYTLTISSLQPEDFATYYCHQYHRLHPITFGQGTKLEIKR )
Result: 24.6

Q: # get_value(readout='Kd', item= C1_IPN92H0038-SG4GK/IPN93L0029-SK1 (antibody, human IgG4 S228P, kappa, name in Kabat numbering, V domains shown, also called IPN92H0038/IPN93L0029) VH: EVMLVESGGGLVKPGGSLRLSCAASGFTFSNYAMSWVRQAPGKGLEWVATISSGGSHTYYLDSVKHRFTISRDNSKDTLYLQMNSLRAEDTALYYCARLFTGHAMDYWGQGTLVTVSS VL: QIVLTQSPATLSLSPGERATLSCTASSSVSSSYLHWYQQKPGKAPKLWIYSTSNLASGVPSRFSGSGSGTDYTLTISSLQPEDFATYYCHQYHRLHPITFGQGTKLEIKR )
Result: 24.2

Q: # get_value(readout='Kd', item= C1_IPN92H0038-SG4GK/IPN93L0031-SK1 (antibody, human IgG4 S228P, kappa, name in Kabat numbering, V domains shown, also called IPN92H0038/IPN93L0031) VH: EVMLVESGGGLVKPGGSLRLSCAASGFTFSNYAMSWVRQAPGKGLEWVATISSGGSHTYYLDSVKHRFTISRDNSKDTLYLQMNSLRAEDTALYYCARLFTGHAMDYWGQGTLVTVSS VL: QIVLTQSPATLSLSPGERATLSCTASSSVSSSYLHWYQQKPGKAPKLWIYSTSNLASGVPSRFSGSGSGTDYTLTISSLQPEDFATYYCHQYHRHHPITFGQGTKLEIKR )
Result: 1.24

---
Q: # get_value(readout='Kd', item= C1_IPN92H0033-SG4GK/IPN93L0023-SK1 (antibody, human IgG4 S228P, kappa, name in Kabat numbering, V domains shown, also called IPN92H0033/IPN93L0023) VH: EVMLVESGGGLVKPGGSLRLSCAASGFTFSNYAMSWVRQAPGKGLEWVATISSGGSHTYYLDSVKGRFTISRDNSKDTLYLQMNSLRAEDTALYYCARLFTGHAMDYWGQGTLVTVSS VL: QIVLTQSPATLSLSPGERATLSCTASSSVSSSYLHWYQQKPGKAPKLWIYSTSNLASGVPSRFSGSGSGTDYTLTISSLQPEDFATYYCHQYYRHPPITFGQGTKLEIKR )
Result: 5.05

Q: # get_value(readout='Kd', item= C1_IPN92H0026-SG4GK/IPN93L0028-SK1 (antibody, human IgG4 S228P, kappa, name in Kabat numbering, V domains shown, also called IPN92H0026/IPN93L0028) VH: EVMLVESGGGLVKPGGSLRLSCAASGFTFSNYAMSWVRQAPGKGLEWVATISSGGSHTYYLDSVKHRFTISRDNSKDTLYLQMNSLRAEDTALYYCARLFTGYAMDYWGQGTLVTVSS VL: QIVLTQSPATLSLSPGERATLSCTASSSVSSSYLHWYQQKPGKAPKLWIYSTSNLASGVPSRFSGSGSGTDYTLTISSLQPEDFATYYCHQYHRHPPITFGQGTKLEIKR )
Result: 10.6
